Form field: kon (one value per entry).
Measurement target: T1, mouse IL-25 expressed with a C-terminal myc-myc-hexahistidine tag (mouse)
T1 construct: also called Mouse IL-25-MMH; mIL-25-MMH
T1 chain: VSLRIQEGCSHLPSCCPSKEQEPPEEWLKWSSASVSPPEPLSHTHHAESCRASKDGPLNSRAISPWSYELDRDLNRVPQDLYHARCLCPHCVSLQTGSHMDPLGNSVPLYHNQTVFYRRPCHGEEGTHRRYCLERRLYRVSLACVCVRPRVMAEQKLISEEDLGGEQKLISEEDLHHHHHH
Measurement protocol: SPR Biacore, antibody captured, 25C

Binder	kon
H4H10863P (antibody, human IgG4, V domains shown, H4H prefix = human IgG4 Fc) VH: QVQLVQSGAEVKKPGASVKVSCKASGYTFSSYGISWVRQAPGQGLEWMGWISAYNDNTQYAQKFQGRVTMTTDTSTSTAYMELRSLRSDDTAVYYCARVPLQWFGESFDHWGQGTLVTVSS VL: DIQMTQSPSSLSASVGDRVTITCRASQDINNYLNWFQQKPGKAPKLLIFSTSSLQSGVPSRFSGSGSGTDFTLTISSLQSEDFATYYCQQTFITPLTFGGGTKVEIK	55700 M⁻¹ s⁻¹
H4H10907P (antibody, human IgG4, V domains shown, H4H prefix = human IgG4 Fc) VH: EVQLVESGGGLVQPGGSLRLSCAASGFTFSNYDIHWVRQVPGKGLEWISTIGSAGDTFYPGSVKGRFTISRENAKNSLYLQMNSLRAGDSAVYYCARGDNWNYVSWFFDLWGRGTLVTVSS VL: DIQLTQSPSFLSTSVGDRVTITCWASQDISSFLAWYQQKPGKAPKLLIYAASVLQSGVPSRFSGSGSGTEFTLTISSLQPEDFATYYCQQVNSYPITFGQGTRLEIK	196000 M⁻¹ s⁻¹
H4H10905P (antibody, human IgG4, V domains shown, H4H prefix = human IgG4 Fc) VH: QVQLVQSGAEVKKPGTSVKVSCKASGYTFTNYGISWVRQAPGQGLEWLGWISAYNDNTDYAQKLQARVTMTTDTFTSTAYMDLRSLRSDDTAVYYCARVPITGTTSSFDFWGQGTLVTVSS VL: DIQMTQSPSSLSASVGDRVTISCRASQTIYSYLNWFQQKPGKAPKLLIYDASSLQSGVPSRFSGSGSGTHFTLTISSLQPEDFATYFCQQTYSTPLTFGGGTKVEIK	124000 M⁻¹ s⁻¹
H4H10897P (antibody, human IgG4, V domains shown, H4H prefix = human IgG4 Fc) VH: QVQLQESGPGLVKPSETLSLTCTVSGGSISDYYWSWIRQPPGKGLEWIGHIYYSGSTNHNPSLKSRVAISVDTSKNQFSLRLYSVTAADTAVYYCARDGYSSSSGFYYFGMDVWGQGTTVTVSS VL: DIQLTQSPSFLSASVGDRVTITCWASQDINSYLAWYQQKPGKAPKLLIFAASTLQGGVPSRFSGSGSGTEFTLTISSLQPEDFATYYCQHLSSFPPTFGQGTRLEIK	148000 M⁻¹ s⁻¹
H4H10871P (antibody, human IgG4, V domains shown, H4H prefix = human IgG4 Fc) VH: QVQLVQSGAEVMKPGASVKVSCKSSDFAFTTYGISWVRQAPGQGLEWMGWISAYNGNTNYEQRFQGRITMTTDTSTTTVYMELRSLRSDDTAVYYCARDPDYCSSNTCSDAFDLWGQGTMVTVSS VL: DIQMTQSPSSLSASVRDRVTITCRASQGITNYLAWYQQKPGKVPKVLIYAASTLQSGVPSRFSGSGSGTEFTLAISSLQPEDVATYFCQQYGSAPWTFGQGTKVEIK	121000 M⁻¹ s⁻¹
H4H10876P (antibody, human IgG4, V domains shown, H4H prefix = human IgG4 Fc) VH: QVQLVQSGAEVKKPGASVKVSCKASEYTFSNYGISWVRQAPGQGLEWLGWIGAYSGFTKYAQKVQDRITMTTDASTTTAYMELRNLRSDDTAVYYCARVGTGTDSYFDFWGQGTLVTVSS VL: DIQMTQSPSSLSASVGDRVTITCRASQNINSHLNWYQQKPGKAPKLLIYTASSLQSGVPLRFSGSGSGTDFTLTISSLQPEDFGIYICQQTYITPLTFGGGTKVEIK	174000 M⁻¹ s⁻¹
